- assay.comment: Reverse-phase thin-layer chromatographic lipophilicity (RF, RM0)
- Assay type: physicochemical
- condition.notes: RP-18 silica; VIII = 45%AC/50%H2O/5%HCl
Below is a list of entries, each paired with its recorded RF, Acetone/Water/Hydrochloric acid (conc.), mobile phase VIII value.
test.readout: RF, Acetone/Water/Hydrochloric acid (conc.), mobile phase VIII

{"compound": "Clc1ccc2c(Nc3cccc(NCC45CC6CC(CC(C6)C4)C5)c3)ccnc2c1 [Compound 18]", "result": 0.21}
{"compound": "Clc1ccc2c(N3CCN(CCC45CC6CC(CC(C6)C4)C5)CC3)ccnc2c1 [Compound 21]", "result": 0.29}
{"compound": "Clc1ccc2c(NCCCCCN(CCC34CC5CC(CC(C5)C3)C4)CCC34CC5CC(CC(C5)C3)C4)ccnc2c1 [Compound 11]", "result": 0}
{"compound": "Clc1ccc2c(NCCN(CCC34CC5CC(CC(C5)C3)C4)CCC34CC5CC(CC(C5)C3)C4)ccnc2c1 [Compound 9]", "result": 0}
{"compound": "CC(CCNCCC12CC3CC(CC(C3)C1)C2)Nc1ccnc2ccccc12 (stereo not drawn) [Compound 16]", "result": 0.26}
{"compound": "Clc1ccc2c(NCCCN3CCN(CCCNCC45CC6CC(CC(C6)C4)C5)CC3)ccnc2c1 [Compound 22]", "result": 0.36}

These measurements were taken from paper PMC9229919.
